The measured values listed here are drawn from PubChem BioAssay AID1159580.

assay: chemical genetic growth profiling, strain panel (AID 1159580);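 note: tested at 20 µM; growth read once vehicle control cultures reached saturation at 30 °C; 1 = growth at the plate median or of vehicle wells; lower values mean less growth of the strain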; settings: S. cerevisiae deletion strains, growth OD, locus YJL115W, strain asf1
The whole screen tested about 5,500 compounds, of which about 2,000 (36%) were called active. Not shown: some 18% with an inconclusive outcome. Cut-off read from the data, not from the text of the source: active = normalized growth mostly below about 0.91 (no sharp cut-off); inconclusive = no clear call, values can overlap the other calls; inactive = mostly above about 0.92. The list shows a part of the results.
Possible outcomes: class 1 = active, class 0 = inactive

INSERT INTO measurements (compound, group_label) VALUES
  ('COc1cccc(-c2cc(=O)c3ccc(OC)cc3o2)c1', 'class 0'),
  ('O=C1CN2Cc3c(ccc(Cl)c3Cl)N=C2N1', 'class 0'),
  ('O=c1cc(-c2ccc(O)cc2)oc2ccc(O)cc12', 'class 0'),
  ('O=c1oc2ccccc2c(O)c1Cc1c(O)c2ccccc2oc1=O', 'class 0'),
  ('O=c1cc(-c2ccc(O)c(O)c2)oc2ccccc12', 'class 0'),
  ('O=C1CC[C@]23C=CC(=O)NCCCCNCCCNC(=O)/C=C/c4ccc(c2c4)O[C@@H]3C1', 'class 0'),
  ('O=C(O)c1cc(=O)c2ccccc2o1', 'class 0'),
  ('O=C1CCc2cc(OCCCCc3nnnn3C3CCCCC3)ccc2N1', 'class 0'),
  ('NCC(=O)CCC(=O)O', 'class 0'),
  ('C[N+]1(CCCCC[N+]2(C)CCCC2)CCCC1', 'class 0'),
  ('CC(C)Oc1ccc2c(=O)cc(-c3ccccc3)oc2c1', 'class 0'),
  ('CC[N+]1(C)CCCC(OC(=O)C(O)(c2ccccc2)c2ccccc2)C1 (configuration not stated)', 'class 0'),
  ('N[C@@H]1CONC1=O', 'class 0'),
  ('CC[C@]12C=CCN3CC[C@@]4(c5ccc(OC)cc5N(C)C4[C@@](O)(C(=O)OC)[C@@H]1OC(C)=O)[C@@H]32 (some centres not stated)', 'class 0'),
  ('CN(N=O)C(=O)N[C@@H]1[C@@H](O)[C@H](O)[C@@H](CO)O[C@@H]1O', 'class 0'),
  ('COc1cc([C@@H]2c3cc4c(cc3[C@H](O)[C@H]3COC(=O)[C@@H]23)OCO4)cc(OC)c1OC', 'class 0'),
  ('O=C(O)c1nc2cc(Cl)c(Cl)cc2[nH]c1=O', 'class 0'),
  ('O=C(/C=C/c1ccccc1)c1ccc(O)cc1', 'class 1'),
  ('CC(=O)Oc1cc(-c2coc3cc(OC(C)=O)c(OC(C)=O)c(OC(C)=O)c3c2=O)cc(OC(C)=O)c1OC(C)=O', 'class 0'),
  ('CN(C)C(=O)Oc1cc(OC(=O)N(C)C)cc(C(O)CNC(C)(C)C)c1 (configuration not stated)', 'class 0'),
  ('O=c1c(-c2cc(O)c(O)c(O)c2)coc2cc(O)c(O)c(O)c12', 'class 0'),
  ('COc1cc2c3cc1Oc1cc(ccc1O)C[C@@H]1c4c(cc(OC)c(O)c4Oc4ccc(cc4)C[C@@H]3N(C)CC2)CC[N+]1(C)C', 'class 0');

###

assay: chemical genetic growth profiling, strain panel (AID 1159580);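 note: tested at 20 µM; growth read once vehicle control cultures reached saturation at 30 °C; 1 = growth at the plate median or of vehicle wells; lower values mean less growth of the strain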; conditions: S. cerevisiae deletion strains, growth OD, locus YHR079C, strain IRE1 (second series)
The campaign covered roughly 5,500 compounds. About 2,000 (36%) were called active. About 18% were inconclusive and are not listed. No stated cut-off is given here; in the data, active means normalized growth mostly below about 0.91 (no sharp cut-off); inconclusive means no clear call, values can overlap the other calls; inactive means mostly above about 0.92. The list shows a part of the results.
Possible outcomes: y for active, n for inactive

INSERT INTO results (compound, group_label) VALUES
  ('COc1cc([C@@H]2c3cc4c(cc3[C@H](O)[C@H]3COC(=O)[C@@H]23)OCO4)cc(OC)c1OC', 'n'),
  ('CC1=C2C(=CO[C@H](C)[C@H]2C)C(=O)C(C(=O)O)=C1O', 'n'),
  ('CC1(C)O[C@@H]2CC3C4C[C@H](F)C5=CC(=O)C=CC5(C)C4C(O)CC3(C)[C@]2(C(=O)CO)O1 (some centres not stated)', 'n'),
  ('COc1ccc(-c2cc(=O)c3c(OC)cccc3o2)cc1', 'n'),
  ('Clc1ccc(Cl)cc1', 'n'),
  ('CCCCCCCCCc1ccc(O)cc1', 'y'),
  ('NCCc1ccc(O)cc1', 'n'),
  ('OC1C(O)C(O)C(O)C(O)C1O (configuration not stated)', 'n'),
  ('COc1ccc(-c2cc(=O)c3ccccc3o2)cc1', 'y'),
  ('C#CCOS(=O)OC1CCCCC1Oc1ccc(C(C)(C)C)cc1 (configuration not stated)', 'n'),
  ('COc1ccc(-c2cc(=O)c3ccccc3o2)cc1OC', 'n'),
  ('CC(N)Cc1ccc(O)cc1 (configuration not stated)', 'n');
